Source listed as ChEMBL document CHEMBL1124759.

Test: in vivo
Details: dog, urine, po, 25 mg/kg
Description: Percent of dose administarted, for urinary recovery determined against Bacillus subtilis ATCC 6633 after oral administration in dog(25 mg/kg)
PROPERTY_NAME: dose excreted (%)

QUERY_SMILES	READING_UNIT	VALUE_OBSERVED
CC(C)(C)n1cc(C(=O)O)c(=O)c2cc(F)c(N3C[C@H]4C[C@@H]3CN4)nc21	%	20

###

Test system: Enterococcus faecalis
Test: In vitro minimum inhibitory concentration (MIC) against Enterococcus faecalis A 9808 at 37 degrees C for 18 h.
Format: functional
PROPERTY_NAME: log10 of MIC (log10 of the value in µg/mL)

COMPOUND	TARGET_OR_TEST_SYSTEM	VALUE_OBSERVED
CC1CN(c2nc3c(cc2F)c(=O)c(C(=O)O)cn3C(C)(C)C)CCN1 (stereo unspecified)	Enterococcus faecalis	-0.30
CC(C)(C)n1cc(C(=O)O)c(=O)c2cc(F)c(N3CCC(CN)C3)nc21 (stereo unspecified)	Enterococcus faecalis	-0.60
CC(C)(C)n1cc(C(=O)O)c(=O)c2cc(F)c(N3C[C@H]4C[C@@H]3CN4)nc21	Enterococcus faecalis	-0.89
CCNC1CCN(c2nc3c(cc2F)c(=O)c(C(=O)O)cn3C(C)(C)C)C1 (stereo unspecified)	Enterococcus faecalis	-0.89
CN1CCN(c2cc3c(cc2F)c(=O)c(C(=O)O)cn3C(C)(C)C)CC1.Cl	Enterococcus faecalis	0.60
CC(C)(C)n1cc(C(=O)O)c(=O)c2cc(F)c(N3CCNC(c4ccccc4)C3)nc21.CS(=O)(=O)O (stereo unspecified)	Enterococcus faecalis	0.00
